- experiment.notes: NCI Yeast Anticancer Drug Screen. Data for the mlh1 rad18 strain (AID 175)
- details: S. cerevisiae mlh1 rad18 strain growth inhibition; at 50.0 µM; stronger effect = higher value
This is part of a sample that, as a whole, favours compounds with a hit. Of some 79,000 tested, about 15% had one in any assay.
observation.type: growth inhibition (%)
One number for each entry, in %.

compound	growth inhibition (%)
Cc1cc2nccnc2cc1C	-23.2
Cc1ccc(NC(=O)Nc2ccccc2Cl)cc1Cl	-4.55
Cc1cc(C(=O)N/N=C/c2cc(Cl)cc(Cl)c2O)c2cc(Br)ccc2n1	45
Cc1ccc(S(=O)(=O)NC(=O)NC23CC4CC(CC(F)(C4)C2)C3)cc1	2.1
COC1OC(CO)C(O)C(OCc2ccccc2)C1OCc1ccccc1 (centres undefined)	-19.3
N#CC(C(=O)C(=O)Nc1cccc(C(F)(F)F)c1)c1cccc(Cl)c1 (centres undefined)	28.9

For every record below, what is its growth inhibition?
1. Cc1cc(C)nc(Nc2nc3ccc([N+](=O)[O-])cc3[nH]2)n1
2. COc1cccc(/C=C2\C(=O)N(C(=O)Cc3ccccc3)N=C2C)c1
3. C=C(C)C(=O)Nc1ccc(NS(=O)(=O)c2ccc(C(C)CC)cc2)c(O)c1 (centres undefined)

-4.85
-24.1
1.2

Sourced from PubChem BioAssay (NCI)
